Listing of entries alongside the reported log10 IC50.
- assay.system: IRAK4 (Homo sapiens (Human))
- test.summary: IRAK4 Biochemical HTRF Kinase Assay
- condition.info: Table 5; multiple runs; read-out: IRAK4 HTRF biochemical: IC50
- Sequence (Q9NWZ3 whole entry, species assumed): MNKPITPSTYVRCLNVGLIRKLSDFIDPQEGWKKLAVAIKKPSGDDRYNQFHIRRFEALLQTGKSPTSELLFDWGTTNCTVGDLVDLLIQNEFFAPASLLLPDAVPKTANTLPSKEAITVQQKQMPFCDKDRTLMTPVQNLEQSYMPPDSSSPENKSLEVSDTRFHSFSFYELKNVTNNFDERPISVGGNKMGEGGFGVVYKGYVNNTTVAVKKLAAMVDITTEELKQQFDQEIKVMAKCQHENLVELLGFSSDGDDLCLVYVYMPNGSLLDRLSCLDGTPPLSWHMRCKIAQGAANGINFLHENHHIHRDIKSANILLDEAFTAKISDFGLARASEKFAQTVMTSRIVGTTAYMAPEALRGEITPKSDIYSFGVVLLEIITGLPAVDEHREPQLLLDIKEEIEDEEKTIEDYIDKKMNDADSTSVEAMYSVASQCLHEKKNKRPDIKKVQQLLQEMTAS
Would you kindly interpret these values as log10 of IC50 expressed in nM?

Some entries whose results are on file:
compound	recorded.measurement
CNc1cc(-c2ccc3cc(C#N)cnn23)ncc1-c1nnc(N2CCN(C(=O)COc3cc(-c4scnc4C)ccc3CNC(=O)[C@@H]3C[C@@H](O)CN3C(=O)[C@@H](NC(=O)C3(F)CC3)C(C)(C)C)CC2)s1	0.11
CC(C)Nc1cc(-c2ccc3cc(C#N)cnn23)ncc1-c1nnc(N2CCN(C(=O)CCCCCNc3cccc4c3C(=O)N(C3CCC(=O)NC3=O)C4=O)CC2)s1 (centres unmarked)	0.46
Cc1ncsc1-c1ccc(CNC(=O)[C@@H]2C[C@@H](O)CN2C(=O)[C@@H](NC(=O)C2(F)CC2)C(C)(C)C)c(OCCCCCC(=O)N2CCN(c3nnc(-c4cnc(-c5ccc6cc(C#N)cnn56)cc4NC(C)C)s3)CC2)c1	1.24
CNc1cc(-c2ccc3cc(C#N)cnn23)ncc1-c1nnc([C@H]2CC[C@@H](NC(=O)CCOCCNc3cccc4c3C(=O)N(C3CCC(=O)NC3=O)C4=O)CC2)s1 (some centres unmarked)	0.34

Let us examine a further case.
Prompt line: # get_value(readout='log10 IC50', item= CNc1cc(-c2ccc3cc(C#N)cnn23)ncc1-c1nnc(N2CCCC3(CN(C(=O)c4ccc5c(c4)C(=O)N(C4CCC(=O)NC4=O)C5=O)C3)C2)s1 (centres unmarked) )
Response line: 0.28

---

Listing of entries alongside the reported DC50.
- assay.system: IRAK4 (Homo sapiens (Human))
- test.summary: IRAK4 Degradation HiBiT Assay
- condition.info: read-out: Cellular IRAK4 HiBiT: DC50; Table 5; multiple runs; HiBiT-tagged Jurkat cells, 4 hrs
- Sequence (Q9NWZ3 whole entry): as the sequence (Q9NWZ3 whole entry, species assumed) above
Number in nM, nothing else.

molecule	measured.property	recorded.measurement
Cc1ncsc1-c1ccc([C@H](C)NC(=O)[C@@H]2C[C@@H](O)CN2C(=O)[C@@H](NC(=O)CCOCCOCCOCCOCCOCCC(=O)N2CCN(c3nnc(-c4cnc(-c5ccc6cc(C#N)cnn56)cc4NC(C)C)s3)CC2)C(C)(C)C)cc1 [Example 41]	DC50	1330

Prompt line: # get_value(readout='DC50', item= CNc1cc(-c2ccc3cc(C#N)cnn23)ncc1-c1nnc([C@H]2CC[C@H](NC(=O)COc3cc(-c4scnc4C)ccc3CNC(=O)[C@@H]3C[C@@H](O)CN3C(=O)[C@@H](NC(=O)C3(F)CC3)C(C)(C)C)CC2)s1 [Example 159] )
Response line: 111

Prompt line: # get_value(readout='DC50', item= CNc1cc(-c2ccc3cc(C#N)cnn23)ncc1-c1nnc([C@H]2CC[C@H](NC(=O)C[C@H](NC(=O)[C@@H]3C[C@@H](O)CN3C(=O)[C@@H](NC(=O)C3(F)CC3)C(C)(C)C)c3ccc(-c4scnc4C)cc3)CC2)s1 [Example 118] )
Response line: 35.2

Prompt line: # get_value(readout='DC50', item= CC(C)Nc1cc(-c2ccc3cc(C#N)cnn23)ncc1-c1nnc(N2CCN(C[C@H]3CCN(c4ccc5c(c4)C(=O)N(C4CCC(=O)NC4=O)C5=O)C3)CC2)s1 (stereo partly shown) [Example 19] )
Response line: 90.6

---

- assay.system: IRAK4 (Homo sapiens (Human), UniProt Q9NWZ3)
- test.summary: IRAK4 Degradation HiBiT Assay
- condition.info: read-out: Cellular IRAK4 HiBiT: DC50; Table 5; multiple runs; HiBiT-tagged Jurkat cells, 4 hrs
Listing of entries alongside the reported log10 DC50.
Would you kindly interpret these values as log10 of DC50 expressed in µM?

Some entries whose results are on file:
compound	assay.system	log10 DC50
CNc1cc(-c2ccc3cc(C#N)cnn23)ncc1-c1nnc([C@H]2CC[C@@H](NC(=O)CCCCCNc3ccc4c(c3)C(=O)N(C3CCC(=O)NC3=O)C4=O)CC2)s1 (stereo partly shown)	IRAK4 (Homo sapiens (Human), UniProt Q9NWZ3)	-1.14
CC(C)Nc1cc(-c2ccc3cc(C#N)cnn23)ncc1-c1nnc([C@H]2CC[C@H](NC(=O)CCOCCOCCOCCNc3cccc4c3C(=O)N(C3CCC(=O)NC3=O)C4=O)CC2)s1 (stereo partly shown)	IRAK4 (Homo sapiens (Human), UniProt Q9NWZ3)	-1.28
CC(C)Nc1cc(-c2ccc3cc(C#N)cnn23)ncc1-c1nnc(N2CCN(C3CCN(C(=O)c4ccc5c(c4)C(=O)N(C4CCC(=O)NC4=O)C5)CC3)CC2)s1 (stereo not shown)	IRAK4 (Homo sapiens (Human), UniProt Q9NWZ3)	-1.82

Prompt line: # get_value(readout='log10 DC50', item= CNc1cc(-c2ccc3cc(C#N)cnn23)ncc1-c1nnc(C23CCC(NC(=O)[C@H]4CC[C@H]4C(=O)N[C@H](C(=O)N4C[C@H](O)C[C@H]4C(=O)N[C@@H](C)c4ccc(-c5scnc5C)cc4)C(C)(C)C)(CC2)CC3)s1 (mixture of isomers) )
Response line: -0.37

Prompt line: # get_value(readout='log10 DC50', item= CN[C@@H](C)C(=O)N[C@H](C(=O)N1CCC[C@H]1c1nc(C(=O)c2cccc(OCCOCCOCCOCCC(=O)N3CCN(c4nnc(-c5cnc(-c6ccc7cc(C#N)cnn67)cc5NC(C)C)s4)CC3)c2)cs1)C1CCCCC1 )
Response line: -0.03

Prompt line: # get_value(readout='log10 DC50', item= CNc1cc(-c2ccc3cc(C#N)cnn23)ncc1-c1nnc([C@H]2CC[C@H](NC(=O)CCCOc3cc(-c4scnc4C)ccc3CNC(=O)[C@@H]3C[C@@H](O)CN3C(=O)[C@@H](NC(=O)C3(F)CC3)C(C)(C)C)CC2)s1 )
Response line: -0.94

Prompt line: # get_value(readout='log10 DC50', item= CC(C)Nc1cc(-c2ccc3cc(C#N)cnn23)ncc1-c1nnc(N2CCN(C(=O)CCCCCNc3ccc4c(c3)C(=O)N(C3CCC(=O)NC3=O)C4=O)CC2)s1 (stereo not shown) )
Response line: -1.15

Prompt line: # get_value(readout='log10 DC50', item= CNc1cc(-c2ccc3cc(C#N)cnn23)ncc1-c1nnc([C@H]2CC[C@H](NC(=O)CCCCCNc3ccc4c(c3)C(=O)N(C3CCC(=O)NC3=O)C4=O)CC2)s1 (stereo partly shown) )
Response line: -1.84

Prompt line: # get_value(readout='log10 DC50', item= CNc1cc(-c2ccc3cc(C#N)cnn23)ncc1-c1nnc([C@H]2CC[C@H](NC(=O)CCCCCCCNc3ccc4c(c3)C(=O)N(C3CCC(=O)NC3=O)C4=O)CC2)s1 (stereo partly shown) )
Response line: -1.34

---

- assay.system: IRAK4 (Homo sapiens (Human))
- test.summary: IRAK4 Biochemical HTRF Kinase Assay
- condition.info: Table 5; multiple runs; read-out: IRAK4 HTRF biochemical: IC50
Simple rule here: IC50 less than 1 nM is True, otherwise False.

For orientation, consider the following solved cases.
compound	label
CNc1cc(-c2ccc3cc(C#N)cnn23)ncc1-c1nnc([C@H]2CC[C@H](NC(=O)CCCCCCCNc3ccc4c(c3)C(=O)N(C3CCC(=O)NC3=O)C4=O)CC2)s1 (some centres unmarked)	False
CNc1cc(-c2ccc3cc(C#N)cnn23)ncc1-c1nnc(C23CCC(NC(=O)CCCCCC(=O)N[C@H](C(=O)N4C[C@H](O)C[C@H]4C(=O)N[C@@H](C)c4ccc(-c5scnc5C)cc4)C(C)(C)C)(CC2)CC3)s1	False
CCN(C(=O)C[C@H](NC(=O)[C@@H]1C[C@@H](O)CN1C(=O)C(c1cc(C)no1)C(C)C)c1ccc(-c2scnc2C)cc1)[C@H]1CC[C@H](c2nnc(-c3cnc(-c4ccc5cc(C#N)cnn45)cc3NC)s2)CC1 (some centres unmarked)	False
CN[C@@H](C)C(=O)N[C@H](C(=O)N1CCC[C@H]1c1nc(C(=O)c2cccc(OCCOCCOCCOCCC(=O)N3CCN(c4nnc(-c5cnc(-c6ccc7cc(C#N)cnn67)cc5NC(C)C)s4)CC3)c2)cs1)C1CCCCC1	False
CC(C)Nc1cc(-c2ccc3cc(C#N)cnn23)ncc1-c1nnc(N2CCC(NC(=O)C3CCN(Cc4ccc5c(c4)C(=O)N(C4CCC(=O)NC4=O)C5=O)CC3)CC2)s1 (centres unmarked)	False

Prompt line: Dear reviewer, please state whether CNc1cc(-c2ccc3cc(C#N)cnn23)ncc1-c1nnc([C@H]2CC[C@H](NC(=O)CN3CCN(c4ccc5c(c4)C(=O)N(C4CCC(=O)NC4=O)C5=O)CC3)CC2)s1 (some centres unmarked) has IC50 strictly beneath 1 nM.
Response line: True

Prompt line: Dear reviewer, please state whether CNc1cc(-c2ccc3cc(C#N)cnn23)ncc1-c1nnc(N2CC3(CCN(C(=O)C[C@H](NC(=O)[C@@H]4C[C@@H](O)CN4C(=O)[C@@H](NC(=O)C4(F)CC4)C(C)(C)C)c4ccc(-c5scnc5C)cc4)CC3)C2)s1 has IC50 strictly beneath 1 nM.
Response line: True

Prompt line: Dear reviewer, please state whether CNc1cc(-c2ccc3cc(C#N)cnn23)ncc1-c1nnc([C@H]2CC[C@H](N(C)C(=O)C3CCN(c4ccc5c(c4)C(=O)N(C4CCC(=O)NC4=O)C5=O)CC3)CC2)s1 (some centres unmarked) has IC50 strictly beneath 1 nM.
Response line: True

Prompt line: Dear reviewer, please state whether CNc1cc(-c2ccc3cc(C#N)cnn23)ncc1-c1nnc(N2CCCC3(CN(C(=O)C[C@H](NC(=O)[C@@H]4C[C@@H](O)CN4C(=O)[C@@H](NC(=O)C4(F)CC4)C(C)(C)C)c4ccc(-c5scnc5C)cc4)C3)C2)s1 has IC50 strictly beneath 1 nM.
Response line: False

Prompt line: Dear reviewer, please state whether CNc1cc(-c2ccc3cc(C#N)cnn23)ncc1-c1nnc([C@H]2CC[C@@H](NC(=O)CCOCCOCCOCCNc3cccc4c3C(=O)N(C3CCC(=O)NC3=O)C4=O)CC2)s1 (some centres unmarked) has IC50 strictly beneath 1 nM.
Response line: False

Prompt line: Dear reviewer, please state whether CNc1cc(-c2ccc3cc(C#N)cnn23)ncc1-c1nnc(N2CCN(C(=O)C[C@@H]3CCCN(c4cccc5c4C(=O)N(C4CCC(=O)NC4=O)C5=O)C3)CC2)s1 (some centres unmarked) has IC50 strictly beneath 1 nM.
Response line: False

Prompt line: Dear reviewer, please state whether CNc1cc(-c2ccc3cc(C#N)cnn23)ncc1-c1nnc(N2CC3CCC(C2)N3C2CCN(Cc3ccc4c(c3)C(=O)N(C3CCC(=O)NC3=O)C4=O)CC2)s1 (centres unmarked) has IC50 strictly beneath 1 nM.
Response line: True
